Experiment: Metabolic stability in liver microsomes
Conditions: dog, liver microsomes, pH 7.4
parameter: remaining at 0 h, 1 μM (%)
One number for each entry, in %.

Given CCc1cc(Cl)c(OC)c(N2CCN(CC(O)CCNC(=O)c3cc4ccccc4[nH]3)CC2)c1 (stereo not shown) , state its recorded remaining at 0 h, 1 μM.
100

----------
Molecular target: CYP2C8 (Homo sapiens)
Sequence (P10632 1-490): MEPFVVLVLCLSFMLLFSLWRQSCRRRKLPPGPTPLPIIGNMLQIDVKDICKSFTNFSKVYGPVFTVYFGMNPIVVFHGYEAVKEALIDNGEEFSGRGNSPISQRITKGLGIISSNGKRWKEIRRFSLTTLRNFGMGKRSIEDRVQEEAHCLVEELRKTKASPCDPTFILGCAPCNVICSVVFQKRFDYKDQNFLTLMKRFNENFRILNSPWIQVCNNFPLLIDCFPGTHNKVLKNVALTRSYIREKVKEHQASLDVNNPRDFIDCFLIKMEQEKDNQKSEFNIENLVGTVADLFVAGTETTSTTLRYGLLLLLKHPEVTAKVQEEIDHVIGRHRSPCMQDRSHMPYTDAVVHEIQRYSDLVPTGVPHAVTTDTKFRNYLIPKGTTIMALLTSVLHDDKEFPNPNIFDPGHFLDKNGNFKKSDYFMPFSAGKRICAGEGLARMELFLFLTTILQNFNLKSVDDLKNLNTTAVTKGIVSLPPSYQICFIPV
Assay: CYP inhibition in human liver microsomes
Details: human, human liver microsomes, probe paclitaxel
parameter: activity at 20 min, 10 µM (%)
Numbers only, in %.

CCc1cc(Cl)c(OC)c(N2CCN(CC(O)CCNC(=O)c3cc4ccccc4[nH]3)CC2)c1 (centres unmarked) :: 89.8

Please look at the following compound next.
Given Cc1nc2c([nH]1)c(=O)n(C)c(=O)n2Cc1ccco1 , state its recorded activity at 20 min, 10 µM.
89.9
